- Test System: JAK1 (Homo sapiens, UniProt P23458)
- Construct: purchased Invitrogen
- Sequence (P23458 whole entry): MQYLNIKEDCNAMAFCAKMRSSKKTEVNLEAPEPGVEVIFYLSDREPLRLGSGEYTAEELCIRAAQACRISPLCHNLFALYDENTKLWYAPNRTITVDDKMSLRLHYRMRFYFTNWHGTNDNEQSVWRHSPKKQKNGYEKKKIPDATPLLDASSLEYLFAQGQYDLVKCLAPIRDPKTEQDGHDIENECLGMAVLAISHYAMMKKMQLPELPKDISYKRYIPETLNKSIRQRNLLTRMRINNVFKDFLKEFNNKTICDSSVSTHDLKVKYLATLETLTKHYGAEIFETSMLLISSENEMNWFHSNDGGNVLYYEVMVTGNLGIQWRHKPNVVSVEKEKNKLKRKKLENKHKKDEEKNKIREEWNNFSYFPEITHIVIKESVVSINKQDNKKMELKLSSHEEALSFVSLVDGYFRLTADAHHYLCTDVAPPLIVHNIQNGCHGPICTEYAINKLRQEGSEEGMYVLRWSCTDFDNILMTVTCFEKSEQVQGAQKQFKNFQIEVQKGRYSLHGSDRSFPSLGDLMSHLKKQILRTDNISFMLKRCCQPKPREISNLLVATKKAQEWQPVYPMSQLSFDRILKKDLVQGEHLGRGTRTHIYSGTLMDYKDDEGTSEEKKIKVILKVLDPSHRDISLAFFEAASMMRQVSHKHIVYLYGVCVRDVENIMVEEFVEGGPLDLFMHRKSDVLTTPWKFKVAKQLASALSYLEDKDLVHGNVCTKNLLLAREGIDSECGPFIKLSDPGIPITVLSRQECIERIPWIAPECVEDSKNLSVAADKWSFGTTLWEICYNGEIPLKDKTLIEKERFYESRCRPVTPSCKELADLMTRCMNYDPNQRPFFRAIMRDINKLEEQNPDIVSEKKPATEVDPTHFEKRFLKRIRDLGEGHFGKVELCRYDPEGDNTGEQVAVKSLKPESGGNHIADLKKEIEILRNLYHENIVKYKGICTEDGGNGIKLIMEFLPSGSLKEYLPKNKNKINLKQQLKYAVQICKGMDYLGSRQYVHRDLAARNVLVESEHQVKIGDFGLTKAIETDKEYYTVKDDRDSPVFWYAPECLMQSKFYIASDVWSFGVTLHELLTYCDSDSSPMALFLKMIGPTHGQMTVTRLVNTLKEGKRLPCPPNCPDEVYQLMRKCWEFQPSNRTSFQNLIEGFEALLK
- Method Notes: JAK1 enzyme inhibition test (LANCE method)
- Type: biochemical
- Condition Context: 1 μM test compound; read-out: JAK1 enzyme inhibitory activity (%, 1 μM)
Below, each entry is listed alongside its reported inhibition at 1 µM.

{"Compound": "CNC[C@H]1CCCN1c1cc(-c2cn(C(C3CC3)C3CC3)c(=O)c3c(N)n[nH]c23)nn1C", "Test System": "JAK1 (Homo sapiens, UniProt P23458)", "inhibition at 1 µM, %": 93}
{"Compound": "Cn1nc(-c2cn(C(C3CC3)C3CC3)c(=O)c3c(N)n[nH]c23)cc1N1CCC[C@H]1CO", "Test System": "JAK1 (Homo sapiens, UniProt P23458)", "inhibition at 1 µM, %": 98}
{"Compound": "CC(C)[C@H](C)n1cc(-c2cc(C(C)(C)CO)n(C)n2)c2[nH]nc(N)c2c1=O", "Test System": "JAK1 (Homo sapiens, UniProt P23458)", "inhibition at 1 µM, %": 98}
{"Compound": "CN(C)[C@H]1CCN(c2cc(-c3cn(-c4c(F)cccc4F)c(=O)c4c(N)n[nH]c34)nn2C)C1", "Test System": "JAK1 (Homo sapiens, UniProt P23458)", "inhibition at 1 µM, %": 98}
{"Compound": "CC1CCCCC1n1cc(-c2cc(N3CCOCC3)n(C)n2)c2[nH]nc(N)c2c1=O (racemic)", "Test System": "JAK1 (Homo sapiens, UniProt P23458)", "inhibition at 1 µM, %": 99}
{"Compound": "COC(C)(C)c1cc(-c2cn([C@@H](C)C(C)C)c(=O)c3c(N)n[nH]c23)nn1C", "Test System": "JAK1 (Homo sapiens, UniProt P23458)", "inhibition at 1 µM, %": 98}
{"Compound": "C[C@@H](C1CC1)n1cc(-c2cc(N3CCC(C)(O)CC3)n(C)n2)c2[nH]nc(N)c2c1=O", "Test System": "JAK1 (Homo sapiens, UniProt P23458)", "inhibition at 1 µM, %": 99}
{"Compound": "COCC(=O)N1CCN(c2cc(-c3cn([C@@H](C)C(C)C)c(=O)c4c(N)n[nH]c34)nn2C)CC1", "Test System": "JAK1 (Homo sapiens, UniProt P23458)", "inhibition at 1 µM, %": 97}
{"Compound": "CC(C)C(C(F)F)n1cc(-c2cc(N3CCOCC3)n(C)n2)c2[nH]nc(N)c2c1=O (stereo not drawn)", "Test System": "JAK1 (Homo sapiens, UniProt P23458)", "inhibition at 1 µM, %": 89}
{"Compound": "COC1(c2cc(-c3cn(C(C4CC4)C4CC4)c(=O)c4c(N)n[nH]c34)nn2C)CN(C(=O)C(C)C)C1", "Test System": "JAK1 (Homo sapiens, UniProt P23458)", "inhibition at 1 µM, %": 97}
{"Compound": "CC(n1cc(-c2cc(N3CCOCC3)n(C)n2)c2[nH]nc(N)c2c1=O)C(C)(C)O (stereo not drawn)", "Test System": "JAK1 (Homo sapiens, UniProt P23458)", "inhibition at 1 µM, %": 83}
{"Compound": "Cn1nc(-c2cn(-c3c(F)cccc3C#N)c(=O)c3c(N)n[nH]c23)cc1C1=CCOCC1", "Test System": "JAK1 (Homo sapiens, UniProt P23458)", "inhibition at 1 µM, %": 99}
{"Compound": "CC(C)[C@H](C)n1cc(-c2cc(C(F)(F)F)n(C)n2)c2[nH]nc(N)c2c1=O", "Test System": "JAK1 (Homo sapiens, UniProt P23458)", "inhibition at 1 µM, %": 96}
{"Compound": "CC(C)C(C#N)n1cc(-c2cc(N3CCOCC3)n(C)n2)c2[nH]nc(N)c2c1=O (racemic)", "Test System": "JAK1 (Homo sapiens, UniProt P23458)", "inhibition at 1 µM, %": 98}
{"Compound": "C[C@H](C1CC1)n1cc(-c2cc(N3CCOCC3)n(C)n2)c2[nH]nc(N)c2c1=O", "Test System": "JAK1 (Homo sapiens, UniProt P23458)", "inhibition at 1 µM, %": 96}

---

- Test System: JAK3 (Homo sapiens, UniProt P52333)
- Construct: purchased Invitrogen
- Sequence (P52333 1-1124): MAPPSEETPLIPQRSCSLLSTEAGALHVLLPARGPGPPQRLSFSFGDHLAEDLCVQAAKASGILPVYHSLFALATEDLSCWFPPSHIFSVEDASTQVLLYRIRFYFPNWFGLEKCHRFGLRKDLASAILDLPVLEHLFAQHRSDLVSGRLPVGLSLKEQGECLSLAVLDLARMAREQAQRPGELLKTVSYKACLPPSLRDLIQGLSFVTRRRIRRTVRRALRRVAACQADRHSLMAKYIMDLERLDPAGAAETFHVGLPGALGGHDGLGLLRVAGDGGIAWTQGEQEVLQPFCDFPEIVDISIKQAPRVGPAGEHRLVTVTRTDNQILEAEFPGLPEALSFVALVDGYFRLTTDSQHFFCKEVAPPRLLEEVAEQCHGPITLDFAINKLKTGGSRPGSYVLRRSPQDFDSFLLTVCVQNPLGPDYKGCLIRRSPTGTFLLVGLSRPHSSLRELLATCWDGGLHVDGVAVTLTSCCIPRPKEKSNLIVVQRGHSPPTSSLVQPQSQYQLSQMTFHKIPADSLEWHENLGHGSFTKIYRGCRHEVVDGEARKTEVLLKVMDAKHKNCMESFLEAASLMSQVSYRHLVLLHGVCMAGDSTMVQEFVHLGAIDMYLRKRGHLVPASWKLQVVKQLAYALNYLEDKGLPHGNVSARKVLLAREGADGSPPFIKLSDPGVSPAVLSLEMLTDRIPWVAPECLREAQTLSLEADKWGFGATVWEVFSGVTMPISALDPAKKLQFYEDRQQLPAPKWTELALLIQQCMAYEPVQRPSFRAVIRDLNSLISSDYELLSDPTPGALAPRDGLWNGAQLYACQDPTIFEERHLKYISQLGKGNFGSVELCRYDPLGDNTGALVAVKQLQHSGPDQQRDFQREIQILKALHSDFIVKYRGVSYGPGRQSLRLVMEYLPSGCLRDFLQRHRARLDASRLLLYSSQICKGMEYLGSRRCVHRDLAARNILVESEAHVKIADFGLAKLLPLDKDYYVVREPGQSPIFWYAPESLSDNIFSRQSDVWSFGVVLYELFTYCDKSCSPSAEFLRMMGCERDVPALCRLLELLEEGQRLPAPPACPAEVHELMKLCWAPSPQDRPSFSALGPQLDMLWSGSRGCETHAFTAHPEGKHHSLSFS
- Method Notes: JAK3 enzyme inhibition test (LANCE method)
- Assay type: biochemical
- Condition Context: 1 μM test compound; read-out: JAK3 enzyme inhibitory activity (%, 1 μM)

{"Molecule Smiles": "CC(C)[C@H](C)n1cc(-c2cc(C(C)(C)CO)n(C)n2)c2[nH]nc(N)c2c1=O", "inhibition at 1 µM": "100%"}
{"Molecule Smiles": "CC(C)[C@H](C)n1cc(-c2cc(N(C)C3CCCC3)n(C)n2)c2[nH]nc(N)c2c1=O", "inhibition at 1 µM": "99%"}
{"Molecule Smiles": "C[C@@H](C1CC1)n1cc(-c2cc(N3CCOCC3)n(C)n2)c2[nH]nc(N)c2c1=O", "inhibition at 1 µM": "100%"}
{"Molecule Smiles": "Cn1nc(-c2cn(-c3c(F)cccc3C#N)c(=O)c3c(N)n[nH]c23)cc1C1=CCOCC1", "inhibition at 1 µM": "99%"}

---

- Test System: JAK1 (Homo sapiens, UniProt P23458)
- Construct: purchased Invitrogen
- Method Notes: JAK1 enzyme inhibition test (LANCE method)
- Assay type: biochemical
- Condition Context: 1 μM test compound; read-out: JAK1 enzyme inhibitory activity (%, 1 μM)

{"Molecule": "C[C@@H](C1CC1)n1cc(-c2cc(N3CCS(=O)(=O)CC3)n(C)n2)c2[nH]nc(N)c2c1=O [Example 96]", "Endpoint Unit": "%", "inhibition at 1 µM": 99}
{"Molecule": "CC(C)[C@H](C)n1cc(-c2cc(N3CCC[C@@H]3CO)n(C)n2)c2[nH]nc(N)c2c1=O [Example 22]", "Endpoint Unit": "%", "inhibition at 1 µM": 96}
{"Molecule": "Cn1nc(-c2cn(C(C3CC3)C3CC3)c(=O)c3c(N)n[nH]c23)cc1C1CC1 [Example 161]", "Endpoint Unit": "%", "inhibition at 1 µM": 100}
{"Molecule": "Cn1nc(-c2cn(-c3c(F)cccc3F)c(=O)c3c(N)n[nH]c23)cc1C(=O)N1CCOCC1 [Example 66]", "Endpoint Unit": "%", "inhibition at 1 µM": 99}
{"Molecule": "CC(C)N1CCN(c2cc(-c3cn([C@@H](C)C4CC4)c(=O)c4c(N)n[nH]c34)nn2C)CC1=O [Example 92]", "Endpoint Unit": "%", "inhibition at 1 µM": 100}
{"Molecule": "CC(C)[C@H](C)n1cc(-c2cc(N3CCCOCC3)n(C)n2)c2[nH]nc(N)c2c1=O [Example 13]", "Endpoint Unit": "%", "inhibition at 1 µM": 97}
{"Molecule": "CN(C)C[C@H]1CCCN1c1cc(-c2cn(C(C3CC3)C3CC3)c(=O)c3c(N)n[nH]c23)nn1C [Example 145]", "Endpoint Unit": "%", "inhibition at 1 µM": 89}
{"Molecule": "Cn1nc(-c2cn(C(C3CC3)C3CC3)c(=O)c3c(N)n[nH]c23)cc1C(C)(C)O [Example 174]", "Endpoint Unit": "%", "inhibition at 1 µM": 99}
